Give pEC50 for every item shown.
molecular target: UniProt:Q9H228; assay: Agonist activity at human S1P5 receptor expressed in EDG8-bla U2OS cells incubated for 18 hrs prior to GenBlazer substrate addition by beta-arrestin recruitment assay
Sequence (Q9H228 whole entry): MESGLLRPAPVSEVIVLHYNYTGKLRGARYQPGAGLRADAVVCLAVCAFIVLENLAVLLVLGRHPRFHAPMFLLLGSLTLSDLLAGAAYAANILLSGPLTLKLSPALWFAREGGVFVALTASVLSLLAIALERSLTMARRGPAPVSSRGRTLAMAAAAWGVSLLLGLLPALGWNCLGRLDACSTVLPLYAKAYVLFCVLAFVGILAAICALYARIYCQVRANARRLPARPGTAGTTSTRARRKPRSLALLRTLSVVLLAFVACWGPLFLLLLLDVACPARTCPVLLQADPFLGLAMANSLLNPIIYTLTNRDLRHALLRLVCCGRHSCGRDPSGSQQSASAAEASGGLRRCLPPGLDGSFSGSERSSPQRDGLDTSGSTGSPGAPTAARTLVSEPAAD
Numbers only, as −log10 of the molar value.

Example compounds with recorded pEC50:
{"columns": ["smilesStr", "pEC50"],
 "data": [
  ["Cc1nc(CC(C)C)cc(-c2nc(-c3cc(F)c(O[C@@H]4CCC(=O)N(C)C4)cc3Cl)no2)n1", 6.67],
  ["Cc1cc(-c2nc(-c3ccc(O[C@H]4CCC(=O)NC4)c(C)n3)no2)cc(NC(C)C)n1", 6.46],
  ["Cc1cc(-c2nc(-c3cc(C)c(OC[C@@H]4CCC(=O)N4)c(C)n3)no2)cc(CC(C)C)n1", 6.47]
]}

// lookup pEC50 for Cc1nc(CC(C)C)cc(-c2nc(-c3ccc(O[C@@H]4CCC(=O)NC4)c(F)c3)no2)n1
6.44
